Documented IC50 across a set of compounds
- target-desc: GSK3alpha (Homo sapiens, UniProt P49840)
- Sequence (P49840 whole entry, species assumed): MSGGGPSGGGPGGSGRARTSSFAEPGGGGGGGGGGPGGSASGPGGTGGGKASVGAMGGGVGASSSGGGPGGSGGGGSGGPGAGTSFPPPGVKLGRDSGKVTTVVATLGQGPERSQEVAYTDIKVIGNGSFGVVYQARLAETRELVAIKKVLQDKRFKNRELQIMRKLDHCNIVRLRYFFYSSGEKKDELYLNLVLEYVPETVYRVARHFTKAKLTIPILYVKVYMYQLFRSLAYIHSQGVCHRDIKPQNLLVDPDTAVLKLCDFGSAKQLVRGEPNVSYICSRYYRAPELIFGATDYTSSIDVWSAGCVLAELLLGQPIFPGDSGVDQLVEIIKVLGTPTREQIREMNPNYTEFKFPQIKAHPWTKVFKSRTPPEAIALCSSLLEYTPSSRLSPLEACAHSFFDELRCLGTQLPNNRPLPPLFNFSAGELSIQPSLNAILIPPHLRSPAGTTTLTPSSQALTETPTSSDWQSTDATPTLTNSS
- assay-info: GSK3alpha assay (same as the GSK3beta assay, GSK3alpha 0.25 ng/μl)
- Type: biochemical
- applied-conditions: −log IC50 (M); given as ranges (>8; 7-8; <7); read-out: pIC50 (GSK3alpha) (converted)
observable: IC50

- N#CCc1cccc(-n2nnc3cnc(Nc4ccc(CCN)cc4)nc32)c1: < 1e-08 M
- CC(=O)NCc1cccc(-n2nnc3cnc(Nc4cccc(S(N)(=O)=O)c4)nc32)c1: < 1e-08 M
- COc1ccc(Nc2ncc3nnn(-c4cccc(F)c4)c3n2)cn1: < 1e-08 M
- NS(=O)(=O)c1ccc(Nc2ncc3nnn(-c4cccc(CC(=O)O)c4)c3n2)cc1: 1e-08 to 1e-07 M
- O=C(O)c1cccc(Nc2ncc3nnn(-c4cccc(CO)c4)c3n2)c1: 1e-08 to 1e-07 M
- COCCOCc1cccc(-n2nnc3cnc(Nc4ccc(CN)cc4)nc32)c1: 1e-08 to 1e-07 M
- O=C(NCc1cccc(-n2nnc3cnc(Nc4ccc(CCO)cc4)nc32)c1)C12CC3CC(CC(C3)C1)C2: 1e-08 to 1e-07 M
- N#Cc1cccc(Nc2ncc3nnn(-c4ccccc4)c3n2)c1: < 1e-08 M

* * *

- target-desc: GSK3alpha (Homo sapiens)
- assay-info: GSK3alpha assay (same as the GSK3beta assay, GSK3alpha 0.25 ng/μl)
- Format: biochemical
- applied-conditions: −log IC50 (M); given as ranges (>8; 7-8; <7); read-out: pIC50 (GSK3alpha) (converted)
observable: IC50

* CC(=O)NCc1cccc(-n2nnc3cnc(Nc4cccc(NS(C)(=O)=O)c4)nc32)c1 [Compound 99] | < 1e-08 M
* NS(=O)(=O)c1cccc(Nc2ncc3nnn(-c4cccc(-c5cnco5)c4)c3n2)c1 [Compound 57] | < 1e-08 M
* COCc1cccc(Nc2ncc3nnn(-c4cccc(CCO)c4)c3n2)c1 [Compound 168] | < 1e-08 M
* COCc1cccc(Nc2ncc3nnn(-c4cccc(CNC(=O)C5CC5)c4)c3n2)c1 [Compound 201] | < 1e-08 M
* COCc1cccc(-n2nnc3cnc(Nc4cccc(S(N)(=O)=O)c4)nc32)c1 [Compound 85] | < 1e-08 M
* O=C(O)Cc1cccc(Nc2ncc3nnn(-c4cccc(F)c4)c3n2)c1 [Compound 25] | < 1e-08 M
* CCOc1cccc(Nc2ncc3nnn(-c4cccc(F)c4)c3n2)c1 [Compound 23] | < 1e-08 M
* NC(=O)c1cccc(-n2nnc3cnc(Nc4ccc(C(=O)O)cc4)nc32)c1 [Compound 228] | < 1e-08 M
* CC(=O)NCc1cccc(Nc2ncc3nnn(-c4cccc(F)c4)c3n2)c1 [Compound 73] | < 1e-08 M

* * *

- target-desc: UniProt P49841
- assay-info: GSK3beta assay (SPA, biotinylated phosphorylated CREB peptide, ATP-P33)
- Assay type: biochemical
- applied-conditions: −log IC50 (M); given as ranges (>8; 7-8; <7); read-out: pIC50 (GSK3beta) (converted)
observable: IC50

* NCc1cccc(Nc2ncc3nnn(-c4ccccc4)c3n2)c1 [Compound 78] | 1e-08 to 1e-07 M
* O=C(O)/C=C/c1cccc(Nc2ncc3nnn(-c4cccc(F)c4)c3n2)c1 [Compound 10] | < 1e-08 M
* CS(=O)(=O)Nc1cccc(Nc2ncc3nnn(-c4cccc(CC#N)c4)c3n2)c1 [Compound 264] | < 1e-08 M
* CC(=O)Nc1ccc(Nc2ncc3nnn(-c4cccc(F)c4)c3n2)cn1 [Compound 87] | 1e-08 to 1e-07 M
* COC(=O)c1cccc(-n2nnc3cnc(Nc4cccc(CNC(C)=O)c4)nc32)c1 [Compound 74] | 1e-08 M
* COCCOCc1cccc(-n2nnc3cnc(Nc4ccc(C(=O)N(C)C)cc4)nc32)c1 [Compound 328] | < 1e-08 M
* NCc1cccc(-n2nnc3cnc(Nc4ccc(F)cc4)nc32)c1 [Compound 279] | 1e-08 to 1e-07 M
* COc1cccc(-n2nnc3cnc(Nc4ccc(O)c(C(=O)O)c4)nc32)c1 [Compound 72] | 1e-08 to 1e-07 M
* COCc1cccc(-n2nnc3cnc(Nc4ccc(CCO)cc4)nc32)c1 [Compound 139] | < 1e-08 M

* * *

- target-desc: UniProt P49840
- assay-info: GSK3alpha assay (same as the GSK3beta assay, GSK3alpha 0.25 ng/μl)
- Assay type: biochemical
- applied-conditions: −log IC50 (M); given as ranges (>8; 7-8; <7); read-out: pIC50 (GSK3alpha) (converted)
Documented IC50 across a set of compounds
observable: IC50

• NC(=O)c1ccc(Nc2ncc3nnn(-c4cccc(CNC(=O)C56CC7CC(CC(C7)C5)C6)c4)c3n2)cc1 = 1e-08 M
• O=C(O)c1ccc(Nc2ncc3nnn(-c4cccc(Br)c4)c3n2)cc1 = < 1e-08 M
• CNS(=O)(=O)c1cccc(Nc2ncc3nnn(-c4cccc(CNC(C)=O)c4)c3n2)c1 = < 1e-08 M
• NC(=O)CNS(=O)(=O)c1cccc(Nc2ncc3nnn(-c4cccc(F)c4)c3n2)c1 = < 1e-08 M

* * *

- target-desc: GSK3β (Homo sapiens)
- Sequence (P49841 whole entry, species assumed): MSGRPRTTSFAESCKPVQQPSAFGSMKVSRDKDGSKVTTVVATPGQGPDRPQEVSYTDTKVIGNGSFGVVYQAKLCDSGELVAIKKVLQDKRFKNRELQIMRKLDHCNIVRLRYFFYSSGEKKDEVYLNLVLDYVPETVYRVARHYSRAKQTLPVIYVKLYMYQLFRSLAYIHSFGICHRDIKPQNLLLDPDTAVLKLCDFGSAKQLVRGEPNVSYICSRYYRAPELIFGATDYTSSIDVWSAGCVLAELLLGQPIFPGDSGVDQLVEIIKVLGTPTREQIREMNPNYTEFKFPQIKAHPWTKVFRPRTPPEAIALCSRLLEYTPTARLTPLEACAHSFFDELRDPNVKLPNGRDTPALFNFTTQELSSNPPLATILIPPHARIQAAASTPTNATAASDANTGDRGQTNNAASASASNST
- assay-info: GSK3beta assay (SPA, biotinylated phosphorylated CREB peptide, ATP-P33)
- Format: biochemical
- applied-conditions: −log IC50 (M); given as ranges (>8; 7-8; <7); read-out: pIC50 (GSK3beta) (converted)
Documented IC50 across a set of molecules
observable: IC50

• C=CCN(c1cccc(Nc2ncc3nnn(-c4cccc(CO)c4)c3n2)c1)S(C)(=O)=O = < 1e-08 M
• O=C(O)c1ccc(Nc2ncc3nnn(-c4ccccc4)c3n2)cc1 = < 1e-08 M
• COCc1cccc(-n2nnc3cnc(Nc4ccc(C(=O)O)c(OC)c4)nc32)c1 = < 1e-08 M
• CC(C)CC(=O)NCc1cccc(-n2nnc3cnc(Nc4cccc(C(=O)NCCO)c4)nc32)c1 = 1e-08 to 1e-07 M
• CCOC(=O)NCc1cccc(-n2nnc3cnc(Nc4ccc(CCO)cc4)nc32)c1 = < 1e-08 M
• CC(=O)NCc1cccc(Nc2ncc3nnn(-c4cccc(CNC(C)=O)c4)c3n2)c1 = < 1e-08 M
• COCCOCc1cccc(-n2nnc3cnc(Nc4cccc(C#N)c4)nc32)c1 = < 1e-08 M
• NCc1ccc(Nc2ncc3nnn(-c4cccc(F)c4)c3n2)cc1 = 1e-08 M
• CC(C)CC(=O)NCc1cccc(-n2nnc3cnc(Nc4ccc(C(N)=O)cc4)nc32)c1 = < 1e-08 M
• NC(=O)Cc1cccc(-n2nnc3cnc(Nc4ccc(F)cc4)nc32)c1 = < 1e-08 M
• N#CSc1ccc(Nc2ncc3nnn(-c4cccc(F)c4)c3n2)cc1 = 1e-08 to 1e-07 M
• COc1cccc(-n2nnc3cnc(Nc4cccc(C#N)c4)nc32)c1 = < 1e-08 M
• Fc1cccc(-n2nnc3cnc(Nc4cccc(Br)c4)nc32)c1 = < 1e-08 M
• N#CCc1cccc(-n2nnc3cnc(Nc4cccc(CO)c4)nc32)c1 = < 1e-08 M
• COCCOc1cccc(-n2nnc3cnc(Nc4ccc(CN)cc4)nc32)c1 = 1e-08 to 1e-07 M
• CS(=O)(=O)Nc1cccc(Nc2ncc3nnn(-c4cccc(CNC(=O)C5CC5)c4)c3n2)c1 = < 1e-08 M
• COc1ccc(Nc2ncc3nnn(-c4cccc(CNC(C)=O)c4)c3n2)cn1 = < 1e-08 M
• CS(=O)(=O)Nc1cccc(Nc2ncc3nnn(-c4cccc(CNC(=O)C56CC7CC(CC(C7)C5)C6)c4)c3n2)c1 = 1e-08 to 1e-07 M
• O=C(O)c1cccc(Nc2ncc3nnn(-c4cccc(F)c4)c3n2)c1 = 1e-08 to 1e-07 M
• COCc1cccc(-n2nnc3cnc(Nc4cccc(CCO)c4)nc32)c1 = < 1e-08 M
• CNC(=O)c1ccc(Nc2ncc3nnn(-c4cccc(OCCOC)c4)c3n2)cc1 = 1e-08 to 1e-07 M
• COc1cccc(-n2nnc3cnc(Nc4cccc(S(C)(=O)=O)c4)nc32)c1 = < 1e-08 M
• CC(=O)N(C)c1ccc(Nc2ncc3nnn(-c4cccc(F)c4)c3n2)cc1 = < 1e-08 M
• CC(C)Oc1cccc(Nc2ncc3nnn(-c4cccc(F)c4)c3n2)c1 = < 1e-08 M
• CCOC(=O)NCc1cccc(-n2nnc3cnc(Nc4cccc(C#N)c4)nc32)c1 = < 1e-08 M
• COCc1cccc(-n2nnc3cnc(Nc4cccc(S(N)(=O)=O)c4)nc32)c1 = 1e-08 to 1e-07 M
• COC(=O)c1cc(Nc2ncc3nnn(-c4cccc(F)c4)c3n2)ccc1N = < 1e-08 M
• COCc1cccc(-n2nnc3cnc(Nc4cccc(NC(C)=O)c4)nc32)c1 = < 1e-08 M
• CC(C)CC(=O)NCc1cccc(-n2nnc3cnc(Nc4ccc(C#N)cc4)nc32)c1 = 1e-08 M
• CCOC(=O)NCc1cccc(-n2nnc3cnc(Nc4cccc([S+](C)[O-])c4)nc32)c1 (stereo not shown) = < 1e-08 M
• O=C(O)Cc1ccc(Nc2ncc3nnn(-c4cccc(CNC(=O)C5CC5)c4)c3n2)cc1 = < 1e-08 M
• CN(C)C(=O)c1ccc(Nc2ncc3nnn(-c4cccc(CCO)c4)c3n2)cc1 = < 1e-08 M
• CNC(=O)c1ccc(Nc2ncc3nnn(-c4cccc(CCO)c4)c3n2)cc1 = < 1e-08 M
• CCOc1cccc(Nc2ncc3nnn(-c4cccc(F)c4)c3n2)c1 = < 1e-08 M
